Test system: Streptomyces acidiscabies
ASSAY_COMMENT: Antimicrobial activity against Streptomyces acidiscabies ATCC 4900315 assessed as inhibition of aerial mycelial growth at 0.04 ug/disk after 5 days by paper disk method
Assay type: functional
The source made the active and inactive calls. The calls are words filed in the database; no cut-off is given here.
PROPERTY: diameter of the inhibition zone (DIZ)

- CO[C@H]1/C=C/O[C@@]2(C)Oc3c(C)c(O)c4c(O)c(cc(O)c4c3C2=O)NC(=O)/C(C)=C\C=C\[C@H](C)[C@H](O)[C@@H](C)[C@@H](O)[C@@H](C)[C@H](OC(C)=O)[C@@H]1C: inactive
- CN[C@@H]1[C@H](O[C@H]2[C@H](O[C@H]3[C@H](O)[C@@H](O)[C@H](N=C(N)N)[C@@H](O)[C@@H]3N=C(N)N)O[C@@H](C)[C@]2(O)C=O)O[C@@H](CO)[C@H](O)[C@H]1O: inactive
- CN[C@@H]1[C@H](O)[C@H](NC)[C@H]2O[C@@]3(O)C(=O)C[C@@H](C)O[C@H]3O[C@@H]2[C@H]1O: inactive

###

Tested on: Streptomyces scabiei
ASSAY_COMMENT: Antimicrobial activity against Streptomyces scabiei ATCC 4917314 assessed as inhibition of aerial mycelial growth at 4 ug/disk after 5 days by paper disk method
Assay type: functional
CONDITION_PARAMETERS: ATCC 4917314, 120 h, read-out: DIZ
Binning of zone of inhibition at 4 µg/disc into classes: low: < 20 mm; moderate: ≥ 20 mm and < 30 mm; high: ≥ 30 mm

These solved cases illustrate the format of a correct answer.
- O=C(N[C@H](CO)[C@H](O)c1ccc([N+](=O)[O-])cc1)C(Cl)Cl: moderate
- NC[C@H]1O[C@H](O[C@H]2[C@H](O)[C@@H](O[C@H]3O[C@H](CO)[C@@H](O)[C@H](N)[C@H]3O)[C@H](N)C[C@@H]2N)[C@H](O)[C@@H](O)[C@@H]1O: low
- CO[C@@H]1[C@@H](OC(N)=O)[C@@H](O)[C@H](Oc2ccc3c(O)c(NC(=O)c4ccc(O)c(CC=C(C)C)c4)c(=O)oc3c2C)OC1(C)C: high

## Input In plain terms, what class is CCC[C@@H]1C[C@@H](C(=O)N[C@@H]([C@H]2O[C@H](SC)[C@H](O)[C@@H](O)[C@H]2O)[C@@H](C)O)N(C)C1 ?
## Output high

## Input Another molecule: C[C@@H]1O[C@@H]1P(=O)(O)O
## Output low

## Input Another molecule: CN(C)[C@@H]1C(O)=C(C(N)=O)C(=O)[C@@]2(O)C(O)=C3C(=O)c4c(O)ccc(Cl)c4[C@@](C)(O)[C@H]3C[C@@H]12
## Output moderate

## Input Another molecule: CC1(C)S[C@@H]2[C@H](NC(=O)[C@H](N)c3ccccc3)C(=O)N2[C@H]1C(=O)O
## Output low

###

Test system: Streptomyces scabiei
ASSAY_COMMENT: Antimicrobial activity against Streptomyces scabiei ATCC 4917314 assessed as inhibition of aerial mycelial growth at 4 ug/disk after 5 days by paper disk method
Format: functional
CONDITION_PARAMETERS: ATCC 4917314, 120 h, read-out: DIZ
PROPERTY: zone of inhibition at 4 µg/disc (mm)
Answers are plain numbers, in mm.

- CO[C@@H]1[C@H](O)C[C@@H](O[C@@H]2C[C@H](Oc3cc4cc5c(c(O)c4c(O)c3C)C(=O)[C@@H](O[C@H]3C[C@@H](O[C@H]4C[C@@H](O[C@H]6C[C@](C)(O)[C@@H](OC(C)=O)[C@H](C)O6)[C@H](O)[C@@H](C)O4)[C@H](O)[C@@H](C)O3)[C@H]([C@H](OC)C(=O)[C@@H](O)[C@@H](C)O)C5)O[C@H](C)[C@@H]2OC(C)=O)O[C@@H]1C [CHROMOMYCIN A3]: 11

Provide the reported zone of inhibition at 4 µg/disc of each entry below, same order.
1. CN[C@@H]1[C@H](O[C@H]2[C@H](O[C@H]3[C@H](O)[C@@H](O)[C@H](N=C(N)N)[C@@H](O)[C@@H]3N=C(N)N)O[C@@H](C)[C@]2(O)C=O)O[C@@H](CO)[C@H](O)[C@H]1O [STREPTOMYCIN]
2. CO[C@@H]1[C@@H](O[C@@H]2O[C@H](C)[C@@H](O[C@H]3C[C@@](C)(O)[C@@H](OC(=O)CC(C)C)[C@H](C)O3)[C@H](N(C)C)[C@H]2O)[C@@H](CC=O)C[C@@H](C)[C@@H](O)/C=C/C=C/C[C@@H](C)OC(=O)C[C@H]1OC(C)=O [JOSAMYCIN]
3. CN(CC[C@H](N)CC(=O)N[C@H]1CC[C@H](n2ccc(N)nc2=O)O[C@@H]1C(=O)O)C(=N)N [BLASTADIN S]
4. CN(C)[C@@H]1C(O)=C(C(N)=O)C(=O)[C@@]2(O)C(O)=C3C(=O)c4c(O)cccc4[C@@](C)(O)[C@H]3[C@H](O)[C@@H]12 [OXYTETRACYCLINE]

## Output
1. 28
2. 29
3. 23
4. 37
